target: human Nav1.8 (Homo sapiens (Human), UniProt Q9Y5Y9); experiment: E-VIPR optical membrane potential assay with electrical stimulation; conditions: HEK cells expressing human Nav1.8
Sequence (Q9Y5Y9 whole entry): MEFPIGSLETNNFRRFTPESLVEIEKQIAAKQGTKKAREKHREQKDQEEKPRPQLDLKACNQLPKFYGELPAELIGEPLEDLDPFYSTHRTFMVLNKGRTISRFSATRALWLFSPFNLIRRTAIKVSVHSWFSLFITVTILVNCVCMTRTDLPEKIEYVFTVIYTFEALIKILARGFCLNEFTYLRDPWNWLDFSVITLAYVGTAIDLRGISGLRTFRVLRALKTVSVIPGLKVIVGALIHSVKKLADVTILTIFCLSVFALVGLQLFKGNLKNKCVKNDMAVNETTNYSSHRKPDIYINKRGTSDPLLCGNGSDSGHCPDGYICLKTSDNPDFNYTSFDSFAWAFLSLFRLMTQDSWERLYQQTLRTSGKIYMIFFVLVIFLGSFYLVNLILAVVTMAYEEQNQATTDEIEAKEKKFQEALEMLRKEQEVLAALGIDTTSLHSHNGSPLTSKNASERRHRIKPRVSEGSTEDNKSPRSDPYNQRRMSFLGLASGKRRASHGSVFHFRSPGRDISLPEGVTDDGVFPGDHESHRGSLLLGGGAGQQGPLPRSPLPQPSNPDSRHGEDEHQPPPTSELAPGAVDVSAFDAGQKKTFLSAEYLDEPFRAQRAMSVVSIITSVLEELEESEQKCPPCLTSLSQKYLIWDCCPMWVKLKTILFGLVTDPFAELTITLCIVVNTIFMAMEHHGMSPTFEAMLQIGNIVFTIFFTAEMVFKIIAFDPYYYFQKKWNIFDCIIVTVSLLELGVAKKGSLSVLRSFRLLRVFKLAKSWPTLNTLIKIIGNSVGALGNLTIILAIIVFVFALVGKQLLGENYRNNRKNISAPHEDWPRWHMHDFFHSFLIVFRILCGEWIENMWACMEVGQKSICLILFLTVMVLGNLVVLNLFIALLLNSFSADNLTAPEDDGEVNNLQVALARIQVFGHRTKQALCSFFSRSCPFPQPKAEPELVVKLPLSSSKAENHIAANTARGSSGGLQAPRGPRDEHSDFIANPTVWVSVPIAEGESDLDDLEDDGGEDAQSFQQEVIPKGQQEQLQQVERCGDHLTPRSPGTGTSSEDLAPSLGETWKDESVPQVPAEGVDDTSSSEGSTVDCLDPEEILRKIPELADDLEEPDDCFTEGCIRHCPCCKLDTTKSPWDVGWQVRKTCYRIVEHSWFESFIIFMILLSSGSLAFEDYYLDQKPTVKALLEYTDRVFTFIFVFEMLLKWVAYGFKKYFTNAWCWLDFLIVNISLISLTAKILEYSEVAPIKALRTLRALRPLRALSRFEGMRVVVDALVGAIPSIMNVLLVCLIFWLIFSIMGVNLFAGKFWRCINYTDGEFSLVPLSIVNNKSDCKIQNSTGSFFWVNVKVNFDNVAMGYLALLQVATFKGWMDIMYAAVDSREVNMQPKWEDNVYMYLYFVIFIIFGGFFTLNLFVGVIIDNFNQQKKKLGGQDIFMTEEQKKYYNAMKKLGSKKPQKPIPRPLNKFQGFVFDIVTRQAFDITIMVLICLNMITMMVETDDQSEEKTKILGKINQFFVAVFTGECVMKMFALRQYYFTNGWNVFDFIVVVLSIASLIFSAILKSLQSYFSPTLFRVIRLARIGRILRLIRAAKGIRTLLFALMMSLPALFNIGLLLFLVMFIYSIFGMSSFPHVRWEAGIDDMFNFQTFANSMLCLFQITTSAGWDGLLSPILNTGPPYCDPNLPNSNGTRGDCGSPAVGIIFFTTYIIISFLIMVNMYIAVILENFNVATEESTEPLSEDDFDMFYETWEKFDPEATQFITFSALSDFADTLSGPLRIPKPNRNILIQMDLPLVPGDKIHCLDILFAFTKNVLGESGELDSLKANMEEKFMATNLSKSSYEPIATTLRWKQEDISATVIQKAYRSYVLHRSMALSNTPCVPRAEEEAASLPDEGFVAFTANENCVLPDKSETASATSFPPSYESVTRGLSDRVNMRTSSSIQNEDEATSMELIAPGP
Property: IC50 (nM)

Here is how some molecules turned out for IC50.
Cc1cc(F)ccc1Oc1cc(C(F)(F)C(F)(F)F)ccc1C(=O)Nc1ccc(C(=O)O)cc1 [Compound 3]
22
O=C(O)c1ccc(NC(=O)c2cc(Cl)c(Cl)cc2Oc2ccc(F)cc2F)cc1 [Compound 24]
53
O=C(O)c1ccc(NC(=O)c2cc(Cl)c(Cl)cc2Oc2ccc(F)cc2Cl)cn1 [Compound 41]
12
CC(C)Oc1ccccc1Oc1ccc(C(F)(F)F)cc1C(=O)Nc1ccc(C(=O)O)nc1 [Compound 64]
755
COc1ccc(Oc2cc(C(F)(F)F)cc(C(F)(F)F)c2C(=O)Nc2ccc(C(=O)O)nc2)c(OC)c1 [Compound 49]
6
O=C(O)c1ccc(NC(=O)c2ccc(C(F)(F)C(F)(F)F)cc2Oc2ccc(F)cc2F)cc1 [Compound 2]
32

1 = COc1ccc(F)cc1Oc1ccc(C(F)(F)F)cc1C(=O)Nc1ccc(C(=O)O)nc1 [Compound 59]
2 = COc1cc(F)ccc1Oc1cc(C(F)(F)F)cc(C(F)(F)F)c1C(=O)Nc1ccc(C(=O)O)cc1 [Compound 10]
Exercise: Please compare: 1 and 2 . Report which one has the smaller IC50 value. Pick one; state its label.
Solution: 2

The origin of these recorded values is patent US9108903B2.
